Numbers sourced from patent US10335401B2.

# assay_system: recombinant human MGAT2 (Homo sapiens (Human), UniProt Q3SYC2)
# Sequence (Q3SYC2 whole entry): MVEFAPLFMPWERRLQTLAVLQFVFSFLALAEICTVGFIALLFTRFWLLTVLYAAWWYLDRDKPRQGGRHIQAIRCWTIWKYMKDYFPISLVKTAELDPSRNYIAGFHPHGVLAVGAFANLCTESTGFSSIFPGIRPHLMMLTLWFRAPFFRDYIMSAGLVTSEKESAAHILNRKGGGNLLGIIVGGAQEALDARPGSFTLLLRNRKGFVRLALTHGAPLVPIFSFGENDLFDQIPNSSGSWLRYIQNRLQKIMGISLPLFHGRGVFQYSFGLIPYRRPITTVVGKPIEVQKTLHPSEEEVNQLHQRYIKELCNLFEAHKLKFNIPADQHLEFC
# assay_method_text: Measurement of human MGAT2 inhibitory activity
# condition_parameters: recombinant human MGAT2 membrane fraction (Sf-9); 2-Oleoylglycerol and Oleoyl-CoA substrates; 1 hour at room temperature; Diolein detected by RapidFire Q-TOF MS
# Text: A full-length human MGAT2 gene to which a Flag-tag had been added at the N-terminal was inserted into pFastBac (from Invitrogen). A recombinant baculovirus was produced in accordance with the protocol for a Bac-to-Bac baculovirus expression system (produced by Invitrogen), and Sf-9 cells were infected therewith. The cells were collected and sonicated, and then the membrane fraction was collected through centrifugation. […]
Items are presented alongside their recorded IC50.
Field: numeric (µM). Do not append units.

Study these solved cases before continuing.
compound: CC(C)c1ccc(C2=C(CNC(=O)CC(=O)O)C(=O)N[C@@](c3ccc(OCCCC(F)(F)F)cc3)(C(F)(F)F)C2)nc1 [Compound I-55]
measured_attribute: IC50
val: 0.16
//
compound: CS(=O)(=O)CC(=O)NCC1=C(c2ccc(C(F)F)cn2)C[C@](c2ccc(C3CC3)cc2)(C(F)(F)F)NC1=O [Compound I-88]
measured_attribute: IC50
val: 0.021
//
compound: COc1ccc(C2=C(CNS(=O)(=O)CC(F)(F)F)C(=O)N[C@@](c3ccc(OCCCC(F)(F)F)cc3)(C(F)(F)F)C2)nc1 [Compound I-19]
measured_attribute: IC50
val: 0.24
//
compound: COc1ccc(C2=C(CNC(=O)C3CC(=O)C3)C(=O)N[C@@](c3ccc(OCCCC(F)(F)F)cc3)(C(F)(F)F)C2)nc1 [Compound I-24]
measured_attribute: IC50
val: 0.04
//
compound: CC(C)(C(=O)NCC1=C(c2ccc(C(F)F)cn2)C[C@](c2ccc(OCCCC(F)(F)F)cc2)(C(F)(F)F)NC1=O)S(C)(=O)=O [Compound I-80]
measured_attribute: IC50
val: 0.99

Exam item: Provide IC50 value for the following compound: CC(C)(C#N)C(=O)NCC1=C(c2ccc(C(C)(C)O)cn2)C[C@](c2ccc(OCCCC(F)(F)F)cc2)(C(F)(F)F)NC1=O [Compound I-52]
Marked response: 0.0031

====

# assay_system: recombinant human MGAT2 (Homo sapiens (Human), UniProt Q3SYC2)
# assay_method_text: Measurement of human MGAT2 inhibitory activity
# condition_parameters: recombinant human MGAT2 membrane fraction (Sf-9); 2-Oleoylglycerol and Oleoyl-CoA substrates; 1 hour at room temperature; Diolein detected by RapidFire Q-TOF MS
measured_attribute: pIC50
# pIC50 = -log10(concentration in molar units)

smiles_record: Cn1ccc(-c2ccc([C@]3(C(F)(F)F)CC(c4ccc(OC(F)F)cn4)=C(CNC(=O)CS(C)(=O)=O)C(=O)N3)cc2)cc1=O
measured_attribute: pIC50
val: 6.43

Exam item: Given the compound "CC(C)(O)c1ccc(C2=C(CNC(=O)C3CS(=O)(=O)C3)C(=O)N[C@@](c3ccc(OCCCC(F)(F)F)cc3)(C(F)(F)F)C2)nc1" , write its reported pIC50.
Marked response: 8.49

Exam item: Could you please provide reported pIC50 for "Cn1cc(-c2ccc([C@]3(C(F)(F)F)CC(c4ccc(OC(F)F)cn4)=C(CNC(=O)CS(C)(=O)=O)C(=O)N3)cc2)cn1" ? Thanks!
Marked response: 7.15

Exam item: Provide measured pIC50 value, entry: "COc1ccc(C2=C(CNC(=O)C(C)(C)O)C(=O)N[C@@](c3ccc(OCCCC(F)(F)F)cc3)(C(F)(F)F)C2)nc1"
Marked response: 7.12

Exam item: Please give the documented pIC50 of "COc1ccc(C2=C(CNC(=O)CC#N)C(=O)N[C@@](c3ccc(OCCCC(F)(F)F)cc3)(C(F)(F)F)C2)nc1"
Marked response: 7.55

Exam item: Please give measured pIC50 of the following entry: "CS(=O)(=O)CC(=O)NCC1=C(c2ccc(C(F)F)cn2)C[C@](c2ccc(Br)cc2)(C(F)(F)F)NC1=O"
Marked response: 7.23

====

# assay_system: recombinant human MGAT2 (Homo sapiens (Human))
# assay_method_text: Measurement of human MGAT2 inhibitory activity
# condition_parameters: recombinant human MGAT2 membrane fraction (Sf-9); 2-Oleoylglycerol and Oleoyl-CoA substrates; 1 hour at room temperature; Diolein detected by RapidFire Q-TOF MS
Recorded IC50, one value per entry.
Value expressed in nM; do not type the unit.

For orientation, consider the following solved cases.
smiles_record: COc1ccc(C2=C(CNC(=O)c3ccno3)C(=O)N[C@@](c3ccc(OCCCC(F)(F)F)cc3)(C(F)(F)F)C2)nc1
val: 7.6
--
smiles_record: CC1(C(=O)NCC2=C(c3ccc(C(F)F)cn3)C[C@](c3ccc(OCCCC(F)(F)F)cc3)(C(F)(F)F)NC2=O)CNC1
val: 410
--
smiles_record: CC(=O)NCC1=C(c2ccc(CO)cn2)C[C@](c2ccc(OCCCC(F)(F)F)cc2)(C(F)(F)F)NC1=O
val: 29
--
smiles_record: CC(C)c1ccc(C2=C(CNC(=O)C(C)(C)C#N)C(=O)N[C@@](c3ccc(OCCCC(F)(F)F)cc3)(C(F)(F)F)C2)nc1
val: 4.4
--
smiles_record: CS(=O)(=O)CC(=O)NCC1=C(c2ccc(OC(F)F)cn2)C[C@](c2ccc(OCCCC(F)(F)F)cc2)(C(F)(F)F)NC1=O
val: 0.62

Exam item: Report IC50, nothing else, for this compound: "CC(=O)NCC1=C(c2ccc(Br)cn2)C[C@](c2ccc(OCCCC(F)(F)F)cc2)(C(F)(F)F)NC1=O"
Marked response: 140

====

# assay_system: recombinant human MGAT2 (Homo sapiens (Human))
# assay_method_text: Measurement of human MGAT2 inhibitory activity
# condition_parameters: recombinant human MGAT2 membrane fraction (Sf-9); 2-Oleoylglycerol and Oleoyl-CoA substrates; 1 hour at room temperature; Diolein detected by RapidFire Q-TOF MS
measured_attribute: pIC50
Note on units: pIC50 is unitless, being -log10 of a concentration expressed in mol/L.

# count of solved cases: 3
molecule: CC(=O)NCC1=C(c2ccc(OC(F)F)cn2)C[C@](c2ccc(OCCCC(F)(F)F)cc2)(C(F)(F)F)NC1=O [Compound I-56]
val: 7.77
--
molecule: CC(=O)NCC1=C(c2ccc(C(C)C)cn2)C[C@](c2ccc(OCCCC(F)(F)F)cc2)(C(F)(F)F)NC1=O [Compound I-35]
val: 7.74
--
molecule: COc1ccc(C2=C(CNC(=O)OC(C)C)C(=O)N[C@@](c3ccc(OCCCC(F)(F)F)cc3)(C(F)(F)F)C2)nc1 [Compound I-33]
val: 6.47

Exam item: Give a short answer stating reported pIC50 for COc1ccc(C2=C(CNC(=O)C3(C#N)CC3)C(=O)N[C@@](c3ccc(OCCCC(F)(F)F)cc3)(C(F)(F)F)C2)nc1 [Compound I-39] .
Marked response: 7.04

Exam item: For CC(C(=O)NCC1=C(c2ccc(C(F)F)cn2)C[C@](c2ccc(OCCCC(F)(F)F)cc2)(C(F)(F)F)NC1=O)S(C)(=O)=O (stereo partly shown) [Compound I-85] , write its pIC50.
Marked response: 7.62

Exam item: Please report the measured pIC50 for CC(C)(O)c1ccc(C2=C(CNC(=O)CS(C)(=O)=O)C(=O)N[C@@](c3ccc(OCCCC(F)(F)F)cc3)(C(F)(F)F)C2)nc1 [Compound I-47]
Marked response: 9.14

Exam item: Read off the recorded pIC50 for Cc1ccc(C2=C(CNS(C)(=O)=O)C(=O)N[C@@](c3ccc(OCCCC(F)(F)F)cc3)(C(F)(F)F)C2)nc1 [Compound I-3]
Marked response: 6.92

Exam item: Look up pIC50 of CS(=O)(=O)CC(=O)NCC1=C(c2ccc(Br)cn2)C[C@](c2ccc(OCCCC(F)(F)F)cc2)(C(F)(F)F)NC1=O [Compound I-70] and report it.
Marked response: 8.28

Exam item: For the molecule CC(C)c1ccc(C2=C(CNC(=O)CO)C(=O)N[C@@](c3ccc(OCCCC(F)(F)F)cc3)(C(F)(F)F)C2)nc1 [Compound I-60] , report pIC50.
Marked response: 7.57

====

# assay_system: recombinant human MGAT2 (Homo sapiens (Human), UniProt Q3SYC2)
# assay_method_text: Measurement of human MGAT2 inhibitory activity
# condition_parameters: recombinant human MGAT2 membrane fraction (Sf-9); 2-Oleoylglycerol and Oleoyl-CoA substrates; 1 hour at room temperature; Diolein detected by RapidFire Q-TOF MS
measured_attribute: pIC50
pIC50 is defined as minus the log10 of a concentration measured in mol/L.

Here is how some compounds turned out for pIC50.
smiles_record: COc1ccc(C2=C(CNC(=O)CC(C)(C)C)C(=O)N[C@@](c3ccc(OCCCC(F)(F)F)cc3)(C(F)(F)F)C2)nc1
pIC50: 7.28
--
smiles_record: Cc1ccc(C2=C(CNS(=O)(=O)CC#N)C(=O)N[C@@](c3ccc(OCCCC(F)(F)F)cc3)(C(F)(F)F)C2)nc1
pIC50: 7.00
--
smiles_record: CS(=O)(=O)CC(=O)NCC1=C(c2ccc(C(F)F)cn2)C[C@](c2ccc(CN3CCOCC3)cc2)(C(F)(F)F)NC1=O
pIC50: 7.41
--
smiles_record: CS(=O)(=O)CC(=O)NCC1=C(c2ccc(C(F)F)cn2)C[C@](c2ccc(OC(F)(F)F)cc2)(C(F)(F)F)NC1=O
pIC50: 7.57
--
smiles_record: CC(C)c1ccc(C2=C(CNC(=O)CC(=O)OC(C)(C)C)C(=O)N[C@@](c3ccc(OCCCC(F)(F)F)cc3)(C(F)(F)F)C2)nc1
pIC50: 7.09
--
smiles_record: CC(=O)NCC1=C(c2ccc(C(C)(C)O)cn2)C[C@](c2ccc(OCCCC(F)(F)F)cc2)(C(F)(F)F)NC1=O
pIC50: 8.00

Moving on to another compound below.
Exam item: Tell us which pIC50 value is on record for "Cc1ccc(C2=C(CNC(=O)C3CS(=O)(=O)C3)C(=O)N[C@@](c3ccc(OCCCC(F)(F)F)cc3)(C(F)(F)F)C2)nc1"
Marked response: 7.74
